# credit: paper PMC6433685

Target sequence: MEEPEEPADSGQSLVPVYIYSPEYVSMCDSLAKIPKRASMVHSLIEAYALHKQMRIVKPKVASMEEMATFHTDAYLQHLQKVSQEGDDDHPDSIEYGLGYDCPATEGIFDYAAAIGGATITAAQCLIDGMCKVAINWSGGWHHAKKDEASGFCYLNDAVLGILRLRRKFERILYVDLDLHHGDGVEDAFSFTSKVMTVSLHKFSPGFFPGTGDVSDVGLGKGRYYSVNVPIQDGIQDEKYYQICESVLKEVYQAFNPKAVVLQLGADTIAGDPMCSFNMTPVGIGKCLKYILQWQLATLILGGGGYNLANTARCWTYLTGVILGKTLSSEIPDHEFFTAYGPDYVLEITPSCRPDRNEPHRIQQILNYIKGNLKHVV
pIC50: −log10 of the molar value.
Observation type: pIC50

Cc1cc(C)cc(C(=O)NOCCCCCC(=O)NO)c1	5.95
